# credit: patent US20190177417A1

Target: T1, Axl protein (human, UniProt P30530 26-451)
T1 construct: extracellular domain; also called human Axl; hAxl
T1 sequence (looked up): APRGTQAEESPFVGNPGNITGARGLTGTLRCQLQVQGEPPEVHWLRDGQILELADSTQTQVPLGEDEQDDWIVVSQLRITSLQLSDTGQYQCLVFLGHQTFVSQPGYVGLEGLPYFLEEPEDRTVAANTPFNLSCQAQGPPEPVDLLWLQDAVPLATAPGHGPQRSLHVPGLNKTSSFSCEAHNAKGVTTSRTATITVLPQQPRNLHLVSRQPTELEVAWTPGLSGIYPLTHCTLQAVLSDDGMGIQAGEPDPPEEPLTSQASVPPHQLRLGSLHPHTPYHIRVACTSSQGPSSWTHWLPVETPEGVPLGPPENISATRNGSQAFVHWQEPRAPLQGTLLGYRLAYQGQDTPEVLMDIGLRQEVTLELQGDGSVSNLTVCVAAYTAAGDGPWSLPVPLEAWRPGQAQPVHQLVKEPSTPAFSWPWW
Experiment: ELISA, 1:3 dilution, pH 6.0 over pH 7.4
measured.endpoint: Affinity ELISA CPE mutant ratio (1:3, pH 6.0/7.4) (ratio)
Give the quantity in ratio, number only.

// known answers, use as guide
{"binder": "HC-S103D (antibody, V domains shown) VH: EVQLVQSGAEVKKPGATVKISCKVSGYSFTGHTMNWIRQPPGKGLEWIGLIKPSNGGTSYNQKFKGRVTISADKSISTAYLQWSSLKASDTAMYYCAHGHYEDYFAMDYWGQGTLVTVSS VL: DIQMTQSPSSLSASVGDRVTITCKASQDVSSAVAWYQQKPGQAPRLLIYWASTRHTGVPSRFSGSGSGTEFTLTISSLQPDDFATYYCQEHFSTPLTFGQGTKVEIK", "observed.result": 4.24}
{"binder": "HC-W110H (antibody, V domains shown) VH: EVQLVQSGAEVKKPGATVKISCKVSGYSFTGHTMNWIRQPPGKGLEWIGLIKPSNGGTSYNQKFKGRVTISADKSISTAYLQWSSLKASDTAMYYCAHGHYESYFAMDYHGQGTLVTVSS VL: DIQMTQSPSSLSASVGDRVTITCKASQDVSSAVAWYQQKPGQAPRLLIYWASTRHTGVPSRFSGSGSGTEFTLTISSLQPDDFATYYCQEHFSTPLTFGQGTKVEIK", "observed.result": 7.99}
{"binder": "HC-E102F (antibody, V domains shown) VH: EVQLVQSGAEVKKPGATVKISCKVSGYSFTGHTMNWIRQPPGKGLEWIGLIKPSNGGTSYNQKFKGRVTISADKSISTAYLQWSSLKASDTAMYYCAHGHYFSYFAMDYWGQGTLVTVSS VL: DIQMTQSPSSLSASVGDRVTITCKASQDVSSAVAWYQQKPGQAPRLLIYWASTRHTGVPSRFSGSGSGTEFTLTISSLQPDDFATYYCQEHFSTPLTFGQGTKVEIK", "observed.result": 1.88}
{"binder": "HC-Y104P (antibody, V domains shown) VH: EVQLVQSGAEVKKPGATVKISCKVSGYSFTGHTMNWIRQPPGKGLEWIGLIKPSNGGTSYNQKFKGRVTISADKSISTAYLQWSSLKASDTAMYYCAHGHYESPFAMDYWGQGTLVTVSS VL: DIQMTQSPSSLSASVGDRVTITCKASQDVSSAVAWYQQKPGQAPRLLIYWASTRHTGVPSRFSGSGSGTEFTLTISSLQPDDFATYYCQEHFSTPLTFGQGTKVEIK", "observed.result": 2.54}

Alright, here's another binder for you.
Lookup result for HC-A106Y (antibody, V domains shown) VH: EVQLVQSGAEVKKPGATVKISCKVSGYSFTGHTMNWIRQPPGKGLEWIGLIKPSNGGTSYNQKFKGRVTISADKSISTAYLQWSSLKASDTAMYYCAHGHYESYFYMDYWGQGTLVTVSS VL: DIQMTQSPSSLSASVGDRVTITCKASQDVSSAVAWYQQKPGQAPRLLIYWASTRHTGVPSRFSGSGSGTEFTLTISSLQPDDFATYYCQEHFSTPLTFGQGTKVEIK ; measured Affinity ELISA CPE mutant ratio (1:3, pH 6.0/7.4): 3.29
